Field: pIC50. Provide a value for each of the compounds that follow.
target: hROMK (human Kir1.1) (Homo sapiens (Human)); assay: cell-based; conditions: CHO T-Rex hROMK stable cell line; thallium flux; 10-point concentration response curve; read-out: Human ROMK Th Flux IC50
Sequence (P48048 whole entry): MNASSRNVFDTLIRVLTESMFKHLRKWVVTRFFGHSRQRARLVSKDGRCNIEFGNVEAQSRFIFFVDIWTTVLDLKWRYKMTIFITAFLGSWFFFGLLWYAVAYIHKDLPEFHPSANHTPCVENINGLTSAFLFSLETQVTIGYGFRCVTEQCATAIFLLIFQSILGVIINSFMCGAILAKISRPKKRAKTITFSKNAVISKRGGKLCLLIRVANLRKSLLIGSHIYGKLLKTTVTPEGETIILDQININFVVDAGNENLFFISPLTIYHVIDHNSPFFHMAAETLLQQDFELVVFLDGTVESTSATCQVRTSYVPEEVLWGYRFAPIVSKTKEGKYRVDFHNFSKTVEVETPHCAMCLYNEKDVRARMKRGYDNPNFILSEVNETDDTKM
One number for each entry, as −log10 of the molar value.

Example entries begin here.
| structure-smiles-string | experimental-endpoint | experimental-value |
| --- | --- | --- |
| Cc1cnc(-n2cc(CN3C[C@@H](c4ccc5c(c4C)COC5=O)N[C@@H](C)C3)cn2)cn1 | pIC50 | 7.09 |
| Cc1cn(-c2ncc(CN3CCO[C@H](c4ccc5c(c4C)COC5=O)C3)cn2)cn1 | pIC50 | 7.57 |
| Cc1cc(-c2ncc(C(=O)N3CCO[C@H](c4ccc5c(c4C)COC5=O)C3)s2)ncc1C#N | pIC50 | 6.16 |
| COc1cc(-n2cnc(CN3C[C@@H](c4ccc5c(c4C)COC5=O)OC3=O)c2)ncc1C#N | pIC50 | 6.09 |
| Cc1c([C@@H]2CN(Cc3cnn(-c4ccc5oc(=O)n(C)c5c4)c3)C(=O)O2)ccc2c1COC2=O | pIC50 | 6.31 |
| COc1cc(-n2nnc(CN3CC[C@@H](O)[C@H](c4ccc5c(c4C)COC5=O)C3)n2)ccc1C#N | pIC50 | 7.19 |
| Cc1cc(-n2cc(CN3CCN[C@H](c4ccc5c(c4C)COC5=O)C3)c(C)n2)ncc1C#N | pIC50 | 7.82 |
| CCc1nn(-c2ccc(CN3CCN[C@H](c4ccc5c(c4C)COC5=O)C3)cn2)cc1C#N | pIC50 | 7.85 |
| Cc1cc(-c2nc(CN3CC[C@@H](O)[C@H](c4ccc5c(c4C)COC5=O)C3)co2)ncc1C#N | pIC50 | 6.77 |
| Cc1cc(-n2cc(CN3CC(=O)N(C)[C@H](c4ccc5c(c4C)COC5=O)C3)cn2)ncc1C#N | pIC50 | 6.09 |

Please supply pIC50 for each of the following items, keeping them in order.
1. COc1cc(-c2ccc(CN3CCN[C@H](c4ccc5c(c4C)COC5=O)C3)cn2)ncc1C#N
2. Cc1c([C@@H]2CN(Cc3ccc(-c4ccc5oc(=O)n(C)c5c4)nc3)CCO2)ccc2c1COC2=O
3. Cc1c([C@@H]2CN(Cc3cnn(-c4ccnc5c4ccn5C)c3)CCO2)ccc2c1COC2=O
4. COc1cc(-n2cc(CN3C[C@@H](c4ccc5c(c4C)COC5=O)N[C@@H](C)C3)n(C)c2=O)ccn1
5. Cc1c([C@@H]2CN(Cc3cnc(-n4cnc(C#N)c4)s3)CCN2)ccc2c1COC2=O

## Output
1. 7.22
2. 6.68
3. 6.30
4. 7.38
5. 7.03
